TEST METHOD NOTES: In vitro inhibitory activity against ADP-induced human platelet aggregation
VALUE TYPE: pIC50
Bear in mind: pIC50 is minus log10 of a mol/L concentration; give just that figure.

INPUT SMILES	pIC50
COc1ccc(COc2ccc3c(=O)cc(N4CCOCC4)oc3c2C)cc1	4.33
CCN(CCOc1ccc2c(=O)cc(N3CCOCC3)oc2c1C)c1ccccc1	4.37
Cc1c(OCc2ccc3ccccc3c2)ccc2c(=O)cc(N3CCOCC3)oc12	4.19
CSCCOc1ccc2c(=O)cc(N3CCOCC3)oc2c1C	4.85
COc1ccccc1COc1ccc2c(=O)cc(N3CCOCC3)oc2c1C	4.36

Prompt line: Please list pIC50 recorded for the compound COc1ccc2c(=O)cc(N3CCOCC3)oc2c1C
Response line: 4.39

Prompt line: Please list pIC50 recorded for the compound CCCc1c(OCCN2CCN(C)CC2)ccc2c(=O)cc(N3CCOCC3)oc12
Response line: 4.16

Prompt line: Please list pIC50 recorded for the compound Cc1c(OCc2nnnn2C2CCCCC2)ccc2c(=O)cc(N3CCOCC3)oc12
Response line: 4.92

Prompt line: Please list pIC50 recorded for the compound CC(=O)COc1ccc2c(=O)cc(N3CCOCC3)oc2c1C
Response line: 4.92

Prompt line: Please list pIC50 recorded for the compound Cc1c(OCc2nnnn2C)ccc2c(=O)cc(N3CCOCC3)oc12
Response line: 5.55

Prompt line: Please list pIC50 recorded for the compound O=c1cc(N2CCOCC2)oc2cc(OCc3ccccn3)ccc12
Response line: 4.28

Prompt line: Please list pIC50 recorded for the compound Cc1c(OCc2nnnn2-c2ccccc2)ccc2c(=O)cc(N3CCOCC3)oc12
Response line: 5.10

---

Listed next: entries and their corresponding log10(IC50).
TEST METHOD NOTES: In vitro inhibitory activity against ADP-induced human platelet aggregation
Reminder: these figures are log10 of reported IC50, in µM before transformation.

INPUT SMILES	OBSERVED
Cc1c(OCCN2CCCCCC2)ccc2c(=O)cc(N3CCOCC3)oc12	0.48
C=CCOc1ccc2c(=O)cc(N3CCOCC3)oc2c1C	1.76
Cc1c(OCc2ccccn2)ccc2c(=O)cc(N3CCOCC3)oc12	1.28

Prompt line: Please list log10(IC50) recorded for the compound C=CCc1c(OCCN2CCN(C)CC2)ccc2c(=O)cc(N3CCOCC3)oc12
Response line: 0.95

Prompt line: Please list log10(IC50) recorded for the compound Cc1c(OCc2nnnn2C(C)(C)C)ccc2c(=O)cc(N3CCOCC3)oc12
Response line: 0.30

Prompt line: Please list log10(IC50) recorded for the compound CCN(CCO)CCOc1ccc2c(=O)cc(N3CCOCC3)oc2c1C
Response line: 1.15

Prompt line: Please list log10(IC50) recorded for the compound CCN(CC)CCOc1ccc2c(=O)cc(N3CCOCC3)oc2c1C
Response line: 0.41

Prompt line: Please list log10(IC50) recorded for the compound Cc1c(OCCN2CCSCC2)ccc2c(=O)cc(N3CCOCC3)oc12
Response line: 0.63

Prompt line: Please list log10(IC50) recorded for the compound C=Cc1c(OCCN2CCN(C)CC2)ccc2c(=O)cc(N3CCOCC3)oc12
Response line: 0.48

Prompt line: Please list log10(IC50) recorded for the compound COC(=O)COc1ccc2c(=O)cc(N3CCOCC3)oc2c1C
Response line: 0.95
